# System: 429239-143-T-J1-PDC complex spheroid viability
# EXPERIMENTAL PROTOCOL: Anticancer human tumor 429239-143-T-J1-PDC patient-derived small cell lung carcinoma cell line growth inhibition [POLQ]
# EXPERIMENTAL SETUP: second compound 0.316 µM; first compound 0.0316 µM; hits give low values
QUANTITY NAME: viability, T/C (%)
Numbers only, in %.

>  <COMPOUND>
CC[C@@]1(O)C(=O)OCc2c1cc1n(c2=O)Cc2cc3c(CN(C)C)c(O)ccc3nc2-1 + Nc1ccc(C#CCN(C(=O)Cc2ncc(C(F)(F)F)cc2C(F)(F)F)c2ccc(F)cc2)nn1

>  <viability, T/C, %>
7.36

$$$$
>  <COMPOUND>
COc1cccc2c1C(=O)c1c(O)c3c(c(O)c1C2=O)CC(O)(C(=O)CO)CC3OC1CC(N)C(O)C(C)O1 (stereo not given) + Nc1ccc(C#CCN(C(=O)Cc2ncc(C(F)(F)F)cc2C(F)(F)F)c2ccc(F)cc2)nn1

>  <viability, T/C, %>
87.3

$$$$
>  <COMPOUND>
O=C(Nc1ccc(O)c(NS(=O)(=O)c2ccc(F)cc2)c1)c1ccc(-c2ccccc2)cc1 + COC1C(OC(N)=O)C(O)C(Oc2ccc3c(O)c(NC(=O)c4ccc(O)c(CC=C(C)C)c4)c(=O)oc3c2C)OC1(C)C

>  <viability, T/C, %>
101

$$$$
>  <COMPOUND>
CC(C)n1c(=O)n(C)c2cnc3cc(F)c(-c4ccc(OCCCN5CCCCC5)nc4)cc3c21 + Nc1ccc(C#CCN(C(=O)Cc2ncc(C(F)(F)F)cc2C(F)(F)F)c2ccc(F)cc2)nn1

>  <viability, T/C, %>
101

$$$$

Alright, here's another compound for you.
Problem: Item under review: COc1cc2cc(C(=O)CCC(=O)O)sc2cc1OC + Nc1ccc(C#CCN(C(=O)Cc2ncc(C(F)(F)F)cc2C(F)(F)F)c2ccc(F)cc2)nn1 . Reported viability, T/C?
Result: 105

====

# Tested on: 429239-143-T-J1-PDC complex spheroid viability
# EXPERIMENTAL PROTOCOL: Anticancer human tumor 429239-143-T-J1-PDC cell line growth inhibition [POLQ];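 note: luminescence signal used as surrogate measure of viable cells; spheroids exposed to compounds for seven days before readout; 100% = DMSO vehicle control viability as luminescence relative to vehicle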
# EXPERIMENTAL SETUP: second compound 0.0316 µM; first compound 0.1 µM; hits give low values
QUANTITY NAME: viability, T/C (%)
Answers are plain numbers, in %.

>  <MOLECULE>
CCCS(=O)(=O)Nc1ccc(F)c(C(=O)c2c[nH]c3ncc(-c4ccc(Cl)cc4)cc23)c1F + Nc1ccc(C#CCN(C(=O)Cc2ncc(C(F)(F)F)cc2C(F)(F)F)c2ccc(F)cc2)nn1

>  <RESULT VALUE>
111

$$$$

# per-item lookup of viability, T/C; items listed below
1. COc1ccc([C@@H](O)c2cc(-c3ncnc4cc(N5CCOCC5)ccc34)c(F)cc2Cl)nn1 + COC1C(OC(N)=O)C(O)C(Oc2ccc3c(O)c(NC(=O)c4ccc(O)c(CC=C(C)C)c4)c(=O)oc3c2C)OC1(C)C
2. Nc1ccn(C2OC(CO)C(O)C2(F)F)c(=O)n1 (stereo unspecified) + COC1C(OC(N)=O)C(O)C(Oc2ccc3c(O)c(NC(=O)c4ccc(O)c(CC=C(C)C)c4)c(=O)oc3c2C)OC1(C)C
3. COc1cc2cc(C(=O)CCC(=O)O)sc2cc1OC + COC1C(OC(N)=O)C(O)C(Oc2ccc3c(O)c(NC(=O)c4ccc(O)c(CC=C(C)C)c4)c(=O)oc3c2C)OC1(C)C
4. O=C(c1cc(Cc2n[nH]c(=O)c3ccccc23)ccc1F)N1CCN(C(=O)C2CC2)CC1 + Nc1ccc(C#CCN(C(=O)Cc2ncc(C(F)(F)F)cc2C(F)(F)F)c2ccc(F)cc2)nn1
5. CNCc1ccc(-c2[nH]c3cc(F)cc4c3c2CCNC4=O)cc1 + Nc1ccc(C#CCN(C(=O)Cc2ncc(C(F)(F)F)cc2C(F)(F)F)c2ccc(F)cc2)nn1

Result:
1: 89.1; 2: 19.2; 3: 95.9; 4: 98.4; 5: 99.6
